System: T1, human GFRα3 expressed with a C-terminal myc-myc-hexahistidine tag (human, UniProt O60609 32-374, biotinylated (sites not given) in ELISA format 2 and in the Octet cross-competition; not in SPR)
T1 construct: also called hGFRα3-mmh; hGFRα3-mmH
T1 sequence (O60609 other isoform, or with tags, fused parts or gaps limits assumed): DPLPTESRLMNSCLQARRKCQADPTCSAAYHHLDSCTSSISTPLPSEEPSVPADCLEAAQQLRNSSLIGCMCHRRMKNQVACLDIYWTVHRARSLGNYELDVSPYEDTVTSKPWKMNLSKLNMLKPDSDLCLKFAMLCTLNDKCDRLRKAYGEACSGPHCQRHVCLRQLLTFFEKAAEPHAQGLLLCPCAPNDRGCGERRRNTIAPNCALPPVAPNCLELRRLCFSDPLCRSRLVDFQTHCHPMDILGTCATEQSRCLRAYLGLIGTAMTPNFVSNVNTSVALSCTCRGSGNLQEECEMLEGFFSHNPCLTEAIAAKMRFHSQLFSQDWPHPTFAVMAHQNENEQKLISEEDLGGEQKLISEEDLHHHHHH
Experimental details: Octet cross-competition; biotin-hGFRα3-mmH pre-saturated with first antibody H4H2350P
Readout kind: binding response of second antibody (nm)
Provide only the numeric value, understood in nm.

[[record]]
binder = "H4H2357S (antibody, human IgG4, V domains shown, human IgG4 Fc (H4H)) VH: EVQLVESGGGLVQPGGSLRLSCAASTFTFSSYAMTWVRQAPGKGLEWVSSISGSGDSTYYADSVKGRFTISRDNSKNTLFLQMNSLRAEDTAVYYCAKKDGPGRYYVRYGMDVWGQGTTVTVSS VL: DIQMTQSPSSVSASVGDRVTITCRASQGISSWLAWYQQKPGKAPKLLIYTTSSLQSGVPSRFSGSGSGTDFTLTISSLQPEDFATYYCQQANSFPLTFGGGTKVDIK"
unit_name = "nm"
reported_result = 2.23


Query binder follows.
Q. Looking for the measured binding response of second antibody (nm) of H4H2352S (antibody, human IgG4, V domains shown, human IgG4 Fc (H4H); also called H4H2352S-1) VH: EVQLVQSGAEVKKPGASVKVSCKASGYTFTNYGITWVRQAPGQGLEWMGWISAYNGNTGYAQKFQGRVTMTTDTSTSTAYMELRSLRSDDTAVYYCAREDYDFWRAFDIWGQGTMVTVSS VL: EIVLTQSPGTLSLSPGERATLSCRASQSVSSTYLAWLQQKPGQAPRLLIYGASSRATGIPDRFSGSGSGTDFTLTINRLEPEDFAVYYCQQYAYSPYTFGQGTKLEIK , can you help?
A. 2.06
